In this section, each of the variants is paired with its reported protein stability index.
B1: PLAGL1 (parent)
chain: TKEKKHQCDHCERCFYTRKDVRRH

- Variants of: B1
- EXPERIMENT_SUMMARY: protein stability index of a GFP-peptide fusion (GPS, HEK-293T) (PSI 1-6); higher = more stable;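 also: lentivirally expressed fusions sorted by FACS into six bins by GFP to DsRed ratio, PSI derived from sequencing read proportions per bin multiplied by bin number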
- CONDITION_INFO: c terminus: a fixed tail appended
# output: bare number, no unit

Worked set:
SEQUENCE_DATA	protein stability index
TKEKKHQCDHCERCFYTRKKVRRH [D20K]	3.29
AKEKKHQCDHCERCFYTRKDVRRH [T1A]	3.1
TKEKKHQCDHCERCFYTRKQVRRH [D20Q]	3.43
TKEKMHQCDHCERCFYTRKDVRRH [K5M]	3.81
TKEKKHQWDHCERCFYTRKDVRRH [C8W]	2.75

Consider the record given below.
Looking up TKEKNHQCDHCERCFYTRKDVRRH [K5N] , I found its protein stability index recorded as 3.03

Recorded values, source the supplement of paper PMC10567573.
